Kindly state inhibition of growth at 10 µM for each of the entries shown.
tested on: HOP-62; assay: Cytotoxicity against Homo sapiens (human) HOP62 cells assessed as growth inhibition at 10 uM after 48 hr by coulter counter analysis; type: functional; conditions: HOP-62, 48 h, read-out: GI
Numbers only, in %.

Below: 2 molecules and their reported inhibition of growth at 10 µM.
{"MOLECULE": "Oc1ccc(-c2nc3c4c(ncn3n2)NC2=C(CCCC2)C4c2ccc(Cl)cc2)cc1 (stereo not given)", "TARGET SYSTEM": "HOP-62", "inhibition of growth at 10 µM [%]": 16.6}
{"MOLECULE": "Clc1ccc(C2C3=C(CCCC3)Nc3ncn4nc(-c5ccccc5)nc4c32)cc1 (stereo not given)", "TARGET SYSTEM": "HOP-62", "inhibition of growth at 10 µM [%]": 16}

Turning now to a further record.
Lab book: inhibition of growth at 10 µM of CN(C)c1ccc(-c2nc3c(c(=O)[nH]2)C(c2ccc(Cl)cc2)C2=C(CCCC2)N3)cc1 (stereo not given) noted as 12.8

###

Kindly state inhibition of growth at 10 µM for each of the entries shown.
system: SK-MEL-5; assay: Cytotoxicity against Homo sapiens (human) SK-MEL-5 cells assessed as growth inhibition at 10 uM after 48 hr by coulter counter analysis; assay type: functional; settings: SK-MEL-5, 48 h, read-out: GI
Numbers only, in %.

Below: 3 compounds and their reported inhibition of growth at 10 µM.
{"COMPOUND": "COc1ccc(C2C3=C(CCCC3)Nc3[nH]c(=S)nc(NC(N)=S)c32)cc1OC (stereo not given)", "RESULT UNITS": "%", "inhibition of growth at 10 µM": 25.5}
{"COMPOUND": "COc1ccc(-c2nc3c(c(=O)[nH]2)C(c2ccc(OC)c(OC)c2)C2=C(CCCC2)N3)cc1OC (stereo not given)", "RESULT UNITS": "%", "inhibition of growth at 10 µM": 18.6}
{"COMPOUND": "O=c1[nH]c(-c2ccccc2)nc2c1C(c1ccc(Cl)cc1)C1=C(CCCC1)N2 (stereo not given)", "RESULT UNITS": "%", "inhibition of growth at 10 µM": 17.8}

Lab book: inhibition of growth at 10 µM of O=c1[nH]nnc2c1C(c1ccc(Cl)cc1)C1=C(CCCC1)N2 (stereo not given) noted as 13

###

test system: MDA-MB-468; test: Cytotoxicity against Homo sapiens (human) MDA-MB-468 cells assessed as growth inhibition at 10 uM after 48 hr by coulter counter analysis; type: functional; conditions: MDA-MB-468, 48 h, read-out: GI
OBSERVATION TYPE: inhibition of growth at 10 µM (%)
Numbers only, in %.

{"COMPOUND": "COc1ccc(C2C3=C(CCCC3)Nc3ncn4nc(-c5ccc(O)cc5)nc4c32)cc1OC (stereo not given)", "inhibition of growth at 10 µM, %": 21.4}
{"COMPOUND": "COc1ccc(C2C3=C(CCCC3)Nc3ncn4nc(-c5ccccc5)nc4c32)cc1OC (stereo not given)", "inhibition of growth at 10 µM, %": 23.2}

Record for Clc1ccc(C2C3=C(CCCC3)Nc3ncn4nc(-c5ccccc5)nc4c32)cc1 (stereo not given) under target or system MDA-MB-468: inhibition of growth at 10 µM reported as 23.1
